system: Kleb. pneumoniae EK-6; test: Anti-bacterial activity (MIC), agar dilution; assay type: cell-based; details: Klebsiella pneumoniae, EK6, 18 h, Kleb. pneumoniae EK-6; agar dilution, about 10^6 CFU/ml, 18 hours, 37° C.; read-out: MIC
test readout: MIC

Solved cases below.
compound: CNC(=O)[C@@H](C)[N+](C)(C)C/C=C/C1=C(C(=O)[O-])N2C(=O)[C@@H](NC(=O)/C(=N\OCF)c3nsc(N)n3)[C@H]2SC1 [Example 59]
MIC: ≤ 0.025 µg/mL
//
compound: NC(=O)C[N+]1(C/C=C/C2=C(C(=O)[O-])N3C(=O)[C@@H](NC(=O)/C(=N\OCF)c4nsc(N)n4)[C@H]3SC2)CCN(C(N)=O)CC1 [Example 31]
MIC: ≤ 0.025 µg/mL
//
compound: Nc1nc(/C(=N/OCF)C(=O)N[C@@H]2C(=O)N3C(C(=O)[O-])=C(/C=C/C[N+]4(CCO)CC=C(C=NO)CC4)CS[C@H]23)ns1 (stereo partly drawn) [Example 42]
MIC: 0.05 µg/mL
//
compound: NC(=O)C[N+]1(C/C=C/C2=C(C(=O)[O-])N3C(=O)[C@@H](NC(=O)/C(=N\OCF)c4nsc(N)n4)[C@H]3SC2)CCC[C@@H]1CO (stereo partly drawn) [Example 17]
MIC: ≤ 0.025 µg/mL

MIC lookup needed for C[C@H](C(N)=O)[N+](C)(C)C/C=C/C1=C(C(=O)[O-])N2C(=O)[C@@H](NC(=O)/C(=N\OCF)c3nsc(N)n3)[C@H]2SC1 [Example 3-2] , thanks.
≤ 0.025 µg/mL

MIC lookup needed for NC(=O)N1CC[N+](C/C=C/C2=C(C(=O)[O-])N3C(=O)[C@@H](NC(=O)/C(=N\OCF)c4nsc(N)n4)[C@H]3SC2)(CC(O)CO)CC1 (stereo partly drawn) [Example 30] , thanks.
0.05 µg/mL

* * *

System: Kleb. pneumoniae EK-6
Assay: Anti-bacterial activity (MIC), agar dilution
Assay type: cell-based
Conditions: Klebsiella pneumoniae, EK6, 18 h, Kleb. pneumoniae EK-6; agar dilution, about 10^6 CFU/ml, 18 hours, 37° C.; read-out: MIC
Protocol: MIC (μg/ml) were determined by an agar dilution method [Chemotherapy (Japan), 29, 76-79, 1981]. Overnight cultures of the bacterial strains in Mueller-Hinton broth were diluted to final concentration of about 10^6 CFU/ml, and 5 μl of each bacterial suspension was spotted onto Mueller-Hinton agar plates that contained twofold serial dilutions of antibiotics. MICs were measured after incubation for 18 hours at 37° C.
// MIC lookup, one value per entry

Solved cases below.
molecule: C[N+]1(C/C=C/C2=C(C(=O)[O-])N3C(=O)[C@@H](NC(=O)/C(=N\OCF)c4nsc(N)n4)[C@H]3SC2)CCCN(C(N)=O)CC1 (stereo partly drawn)
target system: Kleb. pneumoniae EK-6
result: ≤ 0.025 µg/mL

molecule: C[N+](C)(C/C=C/C1=C(C(=O)[O-])N2C(=O)[C@@H](NC(=O)/C(=N\OCF)c3nsc(N)n3)[C@H]2SC1)Cc1cnc[nH]1
target system: Kleb. pneumoniae EK-6
result: 0.05 µg/mL

molecule: Nc1nc(/C(=N/OC(F)F)C(=O)N[C@@H]2C(=O)N3C(C(=O)[O-])=C(/C=C/C[N+]45CCN(CC4)CC5)CS[C@H]23)ns1
target system: Kleb. pneumoniae EK-6
result: ≤ 0.025 µg/mL

molecule: C[N+](C)(C/C=C/C1=C(C(=O)[O-])N2C(=O)[C@@H](NC(=O)/C(=N\OCF)c3nsc(N)n3)[C@H]2SC1)CC(=O)NO
target system: Kleb. pneumoniae EK-6
result: ≤ 0.025 µg/mL

molecule: C[N+](C)(C/C=C/C1=C(C(=O)[O-])N2C(=O)[C@@H](NC(=O)/C(=N\OCC#N)c3nsc(N)n3)[C@H]2SC1)Cc1nnco1
target system: Kleb. pneumoniae EK-6
result: 0.05 µg/mL

MIC lookup needed for C[C@H](CO)[N+](C)(C)C/C=C/C1=C(C(=O)[O-])N2C(=O)[C@@H](NC(=O)/C(=N\OCF)c3nsc(N)n3)[C@H]2SC1 , thanks.
≤ 0.025 µg/mL

* * *

test system: Staph. aureus 209-P; assay: Anti-bacterial activity (MIC), agar dilution; type: cell-based; conditions: Staphylococcus aureus, 209P, 18 h, Staph. aureus 209-P; agar dilution, about 10^6 CFU/ml, 18 hours, 37° C.; read-out: MIC
// MIC lookup, one value per entry
Quick note: give the figure in µg/mL, leave out the unit.

Solved cases below.
compound: C[N+](C)(C/C=C/C1=C(C(=O)[O-])N2C(=O)[C@@H](NC(=O)/C(=N\OCF)c3nsc(N)n3)[C@H]2SC1)NC(N)=O
target system: Staph. aureus 209-P
readout number: 0.8
//
compound: Nc1ccc[n+](C/C=C/C2=C(C(=O)[O-])N3C(=O)[C@@H](NC(=O)/C(=N\OCF)c4nsc(N)n4)[C@H]3SC2)c1
target system: Staph. aureus 209-P
readout number: 0.1
//
compound: NC(=O)C1CC[N+](C/C=C/C2=C(C(=O)[O-])N3C(=O)[C@@H](NC(=O)/C(=N\OCF)c4nsc(N)n4)[C@H]3SC2)(CCO)CC1 (single isomer, unassigned)
target system: Staph. aureus 209-P
readout number: 0.4
//
compound: C[N+](C)(C/C=C/C1=C(C(=O)[O-])N2C(=O)[C@@H](NC(=O)/C(=N\OCC#N)c3nsc(N)n3)[C@H]2SC1)CC(N)=O
target system: Staph. aureus 209-P
readout number: 0.4
//
compound: C[N+]1(C/C=C/C2=C(C(=O)[O-])N3C(=O)[C@@H](NC(=O)/C(=N\OCF)c4nsc(N)n4)[C@H]3SC2)CCNCC1
target system: Staph. aureus 209-P
readout number: 0.2

MIC lookup needed for CC(O)C[N+](C)(C)C/C=C/C1=C(C(=O)[O-])N2C(=O)[C@@H](NC(=O)/C(=N\OCF)c3nsc(N)n3)[C@H]2SC1 (stereo partly drawn) , thanks.
0.4

* * *

tested on: Ser. marcescens ES-75; assay: Anti-bacterial activity (MIC), agar dilution; type: cell-based; conditions: Serratia marcescens, ES75, 18 h, Ser. marcescens ES-75; agar dilution, about 10^6 CFU/ml, 18 hours, 37° C.; read-out: MIC
// MIC lookup, one value per entry
Quick note: give the figure in µg/mL, leave out the unit.

Solved cases below.
compound: Nc1nc(/C(=N/OC(F)F)C(=O)N[C@@H]2C(=O)N3C(C(=O)[O-])=C(/C=C/C[N+](CCO)(CCO)CCO)CS[C@H]23)ns1
test readout: MIC
measurement unit: µg/mL
readout number: 0.2
//
compound: Nc1nc(/C(=N/OCF)C(=O)N[C@@H]2C(=O)N3C(C(=O)[O-])=C(/C=C/C[N+]4(CC(O)CO)CCOCC4)CS[C@H]23)ns1 (stereo partly drawn)
test readout: MIC
measurement unit: µg/mL
readout number: 0.2
//
compound: Nc1nc(/C(=N/OCF)C(=O)N[C@@H]2C(=O)N3C(C(=O)[O-])=C(/C=C/C[N+]45CCN(CC4)CC5)CS[C@H]23)ns1
test readout: MIC
measurement unit: µg/mL
readout number: 0.05

MIC lookup needed for C[N+]1(C/C=C/C2=C(C(=O)[O-])N3C(=O)[C@@H](NC(=O)/C(=N\OCF)c4nsc(N)n4)[C@H]3SC2)CCN(C=N)CC1.Cl , thanks.
0.2

MIC lookup needed for C[C@@H](C(N)=O)[N+](C)(C)C/C=C/C1=C(C(=O)[O-])N2C(=O)[C@@H](NC(=O)/C(=N\OCF)c3nsc(N)n3)[C@H]2SC1 , thanks.
0.05

MIC lookup needed for C[N+](C)(C)C/C=C/C1=C(C(=O)[O-])N2C(=O)[C@@H](NC(=O)/C(=N\OCF)c3nsc(N)n3)[C@H]2SC1 , thanks.
0.1

MIC lookup needed for C[N+](C)(C/C=C/C1=C(C(=O)[O-])N2C(=O)[C@@H](NC(=O)/C(=N\OCF)c3nsc(N)n3)[C@H]2SC1)CC(=O)NCCO , thanks.
0.2

MIC lookup needed for NC(=O)N1CC[N+](C/C=C/C2=C(C(=O)[O-])N3C(=O)[C@@H](NC(=O)/C(=N\OCF)c4nsc(N)n4)[C@H]3SC2)(CC(O)CO)CC1 (stereo partly drawn) , thanks.
0.2

* * *

// MIC lookup, one value per entry
system: Kleb. pneumoniae EK-6; assay: Anti-bacterial activity (MIC), agar dilution; assay type: cell-based; conditions: Klebsiella pneumoniae, EK6, 18 h, Kleb. pneumoniae EK-6; agar dilution, about 10^6 CFU/ml, 18 hours, 37° C.; read-out: MIC

molecule: Nc1nc(/C(=N/OCF)C(=O)N[C@@H]2C(=O)N3C(C(=O)[O-])=C(/C=C/C[N+]4(CCO)CCC(O)C4)CS[C@H]23)ns1 (stereo partly drawn)
target system: Kleb. pneumoniae EK-6
MIC: ≤ 0.025 µg/mL

MIC lookup needed for C[N+](C)(C/C=C/C1=C(C(=O)[O-])N2C(=O)[C@@H](NC(=O)/C(=N\OCF)c3nsc(N)n3)[C@H]2SC1)Cc1nnco1 , thanks.
≤ 0.025 µg/mL

MIC lookup needed for NC(=O)C[N+]1(C/C=C/C2=C(C(=O)[O-])N3C(=O)[C@@H](NC(=O)/C(=N\OCF)c4nsc(N)n4)[C@H]3SC2)CCC(O)CC1 (stereo partly drawn) , thanks.
≤ 0.025 µg/mL
